# test.summary: Plasma concentration in CD1 mouse at 30 mg/kg, po after 6 hrs
# Format: ADME, organism-based
# Design: dose 30 mg/kg, route oral

{"columns": ["molecule.smiles", "concentration at 6 h [ng/mL]"],
 "data": [
  ["CC(=O)O[C@@H]([C@H]1C[C@@H](C)[C@H]2[C@H](O1)[C@H](O)[C@@]1(C)[C@@H]3CC[C@H]4C(C)(C)[C@@H](O[C@H]5CNCCO5)CC[C@@]45C[C@@]35CC[C@]21C)C(C)(C)O", 840]
]}

###

# test.summary: Drug level in CD1 mouse brain at 30 mg/kg, po after 4 hrs
# Type: ADME, organism-based
# Parameters: dose 30 mg/kg, route oral
# settings: read-out: Drug uptake

{"columns": ["molecule.smiles", "concentration at 4 h (ng/g)"],
 "data": [
  ["CC(=O)O[C@@H]([C@H]1C[C@@H](C)[C@H]2[C@H](O1)[C@H](O)[C@@]1(C)[C@@H]3CC[C@H]4C(C)(C)[C@@H](O[C@H]5CNCCO5)CC[C@@]45C[C@@]35CC[C@]21C)C(C)(C)O", 1340]
]}

The reported numbers originate from ChEMBL document CHEMBL2150910.
